Where these numbers come from: patent US20140235701

studyTarget: NGF (nerve growth factor) (Homo sapiens, UniProt P01138 P01138:122-241)
Sequence (P01138 122-241, one chain of several): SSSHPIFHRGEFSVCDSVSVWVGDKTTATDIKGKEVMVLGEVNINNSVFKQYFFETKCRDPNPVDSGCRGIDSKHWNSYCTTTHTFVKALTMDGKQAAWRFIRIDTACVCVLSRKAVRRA
protocol: SPR; strong neurite inhibition at 10 nM
particulars: tags: R&D Systems; chain copies: 2
reportedProperty: binding result

// below: answered binders
[[record]]
binder = "GGGUCCUGCUGCGUAGUUUCCGUCUAUGUGGCUGUUACCC (ssRNA, 2'-F C/U, dA, 2'-OH G) [SEQ ID NO: 96]"
observedmeasurement = "binds"

[[record]]
binder = "GGGUCCUGCUACGUAGUUUCCGUCUACGUGGCUGUUACCC (ssRNA, 2'-F C/U, dA, 2'-OH G) [SEQ ID NO: 98]"
observedmeasurement = "binds"

[[record]]
binder = "GGGUCCUGCUACGUAGUUUCCGUCUGCGUGGCUGUUACCC (ssRNA, 2'-F C/U, dA, 2'-OH G) [SEQ ID NO: 97]"
observedmeasurement = "binds"

[[record]]
binder = "GGGUCCUGCUGCGUAGUUUCCGUCUGCGGAGCUGUUACCC (ssRNA, 2'-F C/U, dA, 2'-OH G) [SEQ ID NO: 94]"
observedmeasurement = "binds"

[[record]]
binder = "GGGUCCUGCUGCGUAGUUUCCAUCUUCGUGGCUGUUACCC (ssRNA, 2'-F C/U, dA, 2'-OH G) [SEQ ID NO: 95]"
observedmeasurement = "binds"


Answer with the recorded binding result for the binder listed here: GGGUCCUGCCGCGUAGUUUCCGUCUUCGCGGUUGUUACCC (ssRNA, 2'-F C/U, dA, 2'-OH G) [SEQ ID NO: 93]
binds
